- method-notes: in vivo
- test-conditions: male, C57, mouse, po, 5 mg/kg
quantity-measured: AUC(0-t) (ng·h/mL)

INSERT INTO measurements (compound, assay_result) VALUES
  ('N#CC[C@H](C1CCCC1)n1cc(-c2ncnc3[nH]ccc23)cn1 [Ruxolitinib, reference compound]', 578);

====

- method-notes: in vivo
- test-conditions: male, C57, mouse, po, 10 mg/kg
quantity-measured: MRT last

INSERT INTO assay_data (compound, quantity_measured, assay_result) VALUES
  ('N#CC[C@H](CCC(F)(F)F)n1cc(-c2ncnc3[nH]ccc23)cn1', 'MRT last', '36 min'),
  ('N#CCC(C1CC(F)(F)C1)n1cc(-c2ncnc3[nH]ccc23)cn1 (stereo not shown)', 'MRT last', '29.4 min'),
  ('N#CC[C@@H](CCC(F)(F)F)n1cc(-c2ncnc3[nH]ccc23)cn1', 'MRT last', '68.4 min'),
  ('N#CCC(C1CCC(C(F)(F)F)CC1)n1cc(-c2ncnc3[nH]ccc23)cn1 (stereo not shown)', 'MRT last', '73.2 min');
